# System: DC-3F hamster lung cells
# test: Cytotoxicity toward DC-3F hamster lung cells
# reported.conditions: Mesocricetus auratus, DC3F, read-out: IC50 (A), single determinations
Numbered stars: 1 amine (or outer) side, 2 acyl side, 3 side chain; on linkers, the order of the positions; unused ones are H or OH. Bridge positions count the residues as written; N and C are the ends. Square brackets hold non-standard residues; d marks the D form. Peptide text beside a SMILES is read from it. I, II: the chains in the order shown. Actinocin(9to1) = Cc1c2oc3c(C)ccc(C(=O)[*:1])c3nc-2c(C(=O)[*:2])c(N)c1=O; NMeV = CN[C@H](C(=O)O)C(C)C; Sar = CNCC(=O)O
measured.parameter: IC50

- compound: "C=CC(C)(C)C12CC3c4nc5ccccc5c(=O)n4CC(=O)N3C1Nc1ccccc12 (stereo not shown) [8-Desmethyl-Ardeemin]"
  obs.value: "10.9 µM"
- compound: "Cc1c2oc3c(C)ccc(C(=O)N[C@@H]4C(=O)N[C@H](C(C)C)C(=O)N5CCC[C@H]5C(=O)N(C)CC(=O)N(C)[C@@H](C(C)C)C(=O)O[C@@H]4C)c3nc-2c(C(=O)N[C@@H]2C(=O)N[C@H](C(C)C)C(=O)N3CCC[C@H]3C(=O)N(C)CC(=O)N(C)[C@@H](C(C)C)C(=O)O[C@@H]2C)c(N)c1=O [Actinomycin D, reference compound] (I: T[dV]P[Sar][NMeV] / II: T[dV]P[Sar][NMeV]; ester I:1-I:C, II:1-II:C; linker I:N-II:N via Actinocin(9to1))"
  obs.value: "0.00021 µM"
- compound: "C=CC(C)(C)C12CC3c4nc5ccccc5c(=O)n4CC(=O)N3C1N(C(C)=O)c1ccccc12 (stereo not shown) [5-N-Ac-8-desmethyl-Ardeemin, N-Acetyl-8-desmethyl-ardeemin]"
  obs.value: "37.7 µM"
- compound: "C=CC(C)(C)C12CC3C(=O)NCC(=O)N3C1Nc1ccccc12 (stereo not shown) [Desmethyl-DKP]"
  obs.value: "116 µM"

====

# Tested on: DC-3F hamster lung cells
# reported.conditions: dc-3f cells

- compound: "C=CCC12CC3c4nc5ccccc5c(=O)n4C(C)C(=O)N3C1N(C(C)=O)c1ccccc12 (centres unmarked)"
  IC90 / µM: 56.2
- compound: "C=CC(C)(C)C12CC3c4nc5ccccc5c(=O)n4C(C)C(=O)N3C1Nc1ccccc12 (centres unmarked)"
  IC90 / µM: 30.9

====

# Tested on: CCRF-CEM/VBL100 cells
# reported.conditions: ccrf-cem/vbl100 cells
measured.parameter: IC50 (µM)

- compound: "COc1cc(NS(C)(=O)=O)ccc1Nc1c2ccccc2nc2ccccc12 [M-AMSA, reference compound]"
  measured.parameter: "IC50"
  measurement.units: "µM"
  obs.value: 0.656
- compound: "C=CCC12CC3c4nc5ccccc5c(=O)n4C(C)C(=O)N3C1N(C(C)=O)c1ccccc12 (centres unmarked)"
  measured.parameter: "IC50"
  measurement.units: "µM"
  obs.value: 35.8

====

# test: Cytotoxicity (XTT, 72 hr) in HCT116 cells
# reported.conditions: human
measured.parameter: MNTC at 72 h

- molecule: "C=CC(C)(C)C12CC3c4nc5ccccc5c(=O)n4C(C)C(=O)N3C1N(C(C)=O)c1ccccc12 (stereo not shown)"
  obs.value: "≥ 2200 nM"
